The values you see were collected from patent US8846669B2.

# Test system: Staphylococcus epidermidis
# TEST_METHOD_NOTES: In vitro antibacterial activity, broth microdilution MIC90
# Type: cell-based
# SETTINGS: Staphylococcus epidermidis
Would you kindly list MIC90 for each of these compounds?
Write the quantity with the unit trailing the number.

get_value(item= C#CCN1CCN(c2ccc(-c3ccc(N4C[C@H](CNC(C)=O)OC4=O)cc3F)cn2)C=N1 , readout=MIC90) returns 0.5 µg/mL

get_value(item= CNC(=O)N1CCN(c2ccc(-c3ccc(N4C[C@H](Cn5ccnn5)OC4=O)cc3F)cn2)C=N1 , readout=MIC90) returns 0.5 µg/mL

get_value(item= COC(=O)NC[C@H]1CN(c2ccc(-c3ccc(N4C=NN(C(N)=O)CC4)nc3)c(F)c2)C(=O)O1 , readout=MIC90) returns 0.5 µg/mL

get_value(item= CCOC(=O)CN1CCN(c2ccc(-c3ccc(N4C[C@H](CNC(C)=O)OC4=O)cc3F)cn2)C=N1 , readout=MIC90) returns 0.5 µg/mL

get_value(item= CC(=O)NC[C@H]1CN(c2ccc(-c3ccc(N4C=NN(C)CC4)nc3)c(F)c2)C(=O)O1 , readout=MIC90) returns 0.125 µg/mL

get_value(item= O=C(C(O)CO)N1CCN(c2ccc(-c3ccc(N4C[C@H](Cn5ccnn5)OC4=O)cc3F)cn2)C=N1 (stereo partly shown) , readout=MIC90) returns 1 µg/mL

get_value(item= O=C1O[C@@H](Cn2ccnn2)CN1c1ccc(-c2ccc(N3C=NNCC3)nc2)c(F)c1 , readout=MIC90) returns 0.5 µg/mL

---

# System: Methicillin Resistant Staphylococcus epidermidis
# TEST_METHOD_NOTES: In vitro antibacterial activity, broth microdilution MIC90
# Format: cell-based
# SETTINGS: Staphylococcus epidermidis
MEASURED_PARAMETER: MIC90

get_value(item= COC(=O)NC[C@H]1CN(c2ccc(-c3ccc(N4C=NN(C)CC4)nc3)c(F)c2)C(=O)O1 [Compound 24] , readout=MIC90) returns 2 µg/mL

get_value(item= CC(=O)NC[C@H]1CN(c2ccc(-c3ccc(N4C=NN(C(N)=O)CC4)nc3)c(F)c2)C(=O)O1 [Compound 17] , readout=MIC90) returns 0.5 µg/mL

get_value(item= CCN1CCN(c2ccc(-c3ccc(N4C[C@H](CO)OC4=O)cc3F)cn2)C=N1 [Compound 29] , readout=MIC90) returns 8 µg/mL

get_value(item= CC(=O)NC[C@H]1CN(c2ccc(-c3ccc(N4C=NN(C)CC4)nc3)c(F)c2)C(=O)O1 [Compound 3] , readout=MIC90) returns 0.5 µg/mL

get_value(item= C=CCN1CCN(c2ccc(-c3ccc(N4C[C@H](CNC(C)=O)OC4=O)cc3F)cn2)C=N1 [Compound 7] , readout=MIC90) returns 1 µg/mL

get_value(item= CC(=O)NC[C@H]1CN(c2ccc(-c3ccc(N4CCNC=N4)nc3)c(F)c2)C(=O)O1 [Compound 53] , readout=MIC90) returns 2 µg/mL

get_value(item= CC(=O)NC[C@H]1CN(c2ccc(-c3ccc(N4C=NN(CC(=O)O)CC4)nc3)c(F)c2)C(=O)O1 [Compound 10] , readout=MIC90) returns 2 µg/mL

get_value(item= CC(=O)NC[C@H]1CN(c2ccc(-c3ccc(N4C=NN(C(=O)COC(C)=O)CC4)nc3)c(F)c2)C(=O)O1 [Compound 12] , readout=MIC90) returns 0.25 µg/mL

get_value(item= C#CCN1CCN(c2ccc(-c3ccc(N4C[C@H](CNC(C)=O)OC4=O)cc3F)cn2)C=N1 [Compound 8] , readout=MIC90) returns 1 µg/mL

get_value(item= CC(=O)NC[C@H]1CN(c2ccc(-c3ccc(N4C=NN(C(=O)CN)CC4)nc3)c(F)c2)C(=O)O1 [Compound 19] , readout=MIC90) returns 0.5 µg/mL

get_value(item= CN1CCN(c2ccc(-c3ccc(N4C[C@H](Cn5ccnn5)OC4=O)cc3F)cn2)C=N1 [Compound 31] , readout=MIC90) returns 1 µg/mL

get_value(item= COC(=O)NC[C@H]1CN(c2ccc(-c3ccc(N4C=NN(C(N)=O)CC4)nc3)c(F)c2)C(=O)O1 [Compound 26] , readout=MIC90) returns 1 µg/mL

get_value(item= NCC(=O)N1CCN(c2ccc(-c3ccc(N4C[C@H](Cn5ccnn5)OC4=O)cc3F)cn2)C=N1 [Compound 38] , readout=MIC90) returns 0.5 µg/mL

get_value(item= O=C(CO)N1CCN(c2ccc(-c3ccc(N4C[C@H](Cn5ccnn5)OC4=O)cc3F)cn2)C=N1 [Compound 32] , readout=MIC90) returns 1 µg/mL

get_value(item= CNC(=O)N1CCN(c2ccc(-c3ccc(N4C[C@H](CNC(C)=O)OC4=O)cc3F)cn2)C=N1 [Compound 16] , readout=MIC90) returns 1 µg/mL

---

# System: Linezolid and Vancomycin Resistant Enterococcus faecium (strain 11)
# TEST_METHOD_NOTES: In vitro antibacterial activity, broth microdilution MIC90
# Format: cell-based
# SETTINGS: Enterococcus faecium
MEASURED_PARAMETER: MIC90 (µg/mL)
Write the number in µg/mL without appending the unit.

get_value(item= CNC(=O)N1CCN(c2ccc(-c3ccc(N4C[C@H](CNC(=O)OC)OC4=O)cc3F)cn2)C=N1 , readout=MIC90) returns 2

get_value(item= C=CCN1CCN(c2ccc(-c3ccc(N4C[C@H](CNC(C)=O)OC4=O)cc3F)cn2)C=N1 , readout=MIC90) returns 4

get_value(item= CC(=O)NC[C@H]1CN(c2ccc(-c3ccc(N4CCNC=N4)nc3)c(F)c2)C(=O)O1 , readout=MIC90) returns 4

get_value(item= COC(=O)NC[C@H]1CN(c2ccc(-c3ccc(N4C=NN(C(N)=O)CC4)nc3)c(F)c2)C(=O)O1 , readout=MIC90) returns 2

get_value(item= CC(=O)NC[C@H]1CN(c2ccc(-c3ccc(N4C=NN(C(=O)C5COC(C)(C)O5)CC4)nc3)c(F)c2)C(=O)O1 (stereo partly shown) , readout=MIC90) returns 8

get_value(item= CC(=O)NC[C@H]1CN(c2ccc(-c3ccc(N4C=NN(CC(=O)O)CC4)nc3)c(F)c2)C(=O)O1 , readout=MIC90) returns 8

get_value(item= CC(=O)NC[C@H]1CN(c2ccc(-c3ccc(N4C=NN(CC(=O)OC(C)(C)C)CC4)nc3)c(F)c2)C(=O)O1 , readout=MIC90) returns 8

---

Would you kindly list MIC90 for each of these compounds?
# System: Staphylococcus aureus
# TEST_METHOD_NOTES: In vitro antibacterial activity, broth microdilution MIC90
# Type: cell-based
# SETTINGS: Staphylococcus aureus; strain 1, S. aureus; read-out: MIC90
Write the number in µg/mL without appending the unit.

Recorded MIC90 for CC(=O)NC[C@H]1CN(c2ccc(-c3ccc(N4C=NOCC4)nc3)c(F)c2)C(=O)O1 [Compound 57] on Staphylococcus aureus was 0.25

Recorded MIC90 for COC(=O)NC[C@H]1CN(c2ccc(-c3ccc(N4CCON=C4C)nc3)c(F)c2)C(=O)O1 [Compound 63] on Staphylococcus aureus was 2

Recorded MIC90 for CC(=O)NC[C@H]1CN(c2ccc(-c3ccc(C4=NOCCN4)nc3)c(F)c2)C(=O)O1 [Compound 64] on Staphylococcus aureus was 0.25

---

# System: Linezolid and Vancomycin Resistant Enterococcus faecalis
# TEST_METHOD_NOTES: In vitro antibacterial activity, broth microdilution MIC90
# Assay type: cell-based
# SETTINGS: strain 7, E. faecalis VanA LR
MEASURED_PARAMETER: MIC90 (µg/mL)
Write the number in µg/mL without appending the unit.

get_value(item= O=C(C(O)CO)N1CCN(c2ccc(-c3ccc(N4C[C@H](COc5ccon5)OC4=O)cc3F)cn2)C=N1 (stereo partly shown) , readout=MIC90) returns 16

get_value(item= O=C1O[C@@H](CNc2ccon2)CN1c1ccc(-c2ccc(N3C=NOCC3)nc2)c(F)c1 , readout=MIC90) returns 2

get_value(item= O=C(O)CN1CCN(c2ccc(-c3ccc(N4C[C@H](COc5ccon5)OC4=O)cc3F)cn2)C=N1 , readout=MIC90) returns 16

---

# Tested on: Linezolid and Vancomycin Resistant Enterococcus faecium (strain 11)
# TEST_METHOD_NOTES: In vitro antibacterial activity, broth microdilution MIC90
# Assay type: cell-based
# SETTINGS: Enterococcus faecium; strain 11, E. faecium VanA LR; read-out: MIC90
Would you kindly list MIC90 for each of these compounds?
Write the number in µg/mL without appending the unit.

get_value(item= COC(=O)NC[C@H]1CN(c2ccc(-c3ccc(C4=NOCCN4)nc3)c(F)c2)C(=O)O1 [Compound 65] , readout=MIC90) returns 4

get_value(item= CC(=O)NC[C@H]1CN(c2ccc(-c3ccc(C4=NOCCN4C)nc3)c(F)c2)C(=O)O1 [Compound 69] , readout=MIC90) returns 4

get_value(item= O=C1O[C@@H](Cn2ccnn2)CN1c1ccc(-c2ccc(C3=NOCCN3)nc2)c(F)c1 [Compound 66] , readout=MIC90) returns 2
